Tested on: HCT-15 colon
Assay: NCI tumour cell line growth inhibition, 48 h
Reported GI50 values for the following compounds.

COMPOUND: Cc1cccc(-c2nn3c(c2-c2ccnc4ccc(C(N)=O)cc24)CCC3)n1
GI50: > 100 µM
//
COMPOUND: COc1cc2c(F)nccc2cc1C(=O)N[C@@H](c1ccc(F)c(Cl)c1)[C@@H]1C[C@@H](O)CN1
GI50: 0.838 µM
//
COMPOUND: Nc1ccccc1SC(CC(=O)c1ccccc1)c1ccc([N+](=O)[O-])cc1 (stereo not given)
GI50: 8.51 µM
//
COMPOUND: O=C1/C=C/[C@@H](O)[C@@H]2C[C@@H](O)C[C@H]2/C=C/CCC[C@H](CCc2ccc(C(F)(F)F)cc2)O1
GI50: 0.34 µM
//
COMPOUND: CC(C)CC1C(=O)N2CCC[C@H]2C2(O)O[C@](NC(=O)C3C=C4c5cccc6[nH]c(Br)c(c56)C[C@H]4N(C)C3)(C(C)C)C(=O)N12 (stereo not given in full)
GI50: 7.05 µM

* * *

Test system: TK-10 renal
Test: NCI tumour cell line growth inhibition, 48 h
VALUE_KIND: TGI

COMPOUND: Sc1ccc2ccccc2c1CNCc1ccccc1
OBSERVED_MEASUREMENT: > 100 µM
--
COMPOUND: CCOC(=O)/C(C=Nc1c(C)n(C)n(-c2ccccc2)c1=O)=C(/O)c1ccccc1
OBSERVED_MEASUREMENT: > 100 µM
--
COMPOUND: Nc1ccc(Oc2ccc(C3(c4ccc(Oc5ccc(N)cc5)cc4)C4CC5C6CC7CC5C3C(C7)C6C4)cc2)cc1
OBSERVED_MEASUREMENT: > 100 µM
--
COMPOUND: Cc1ccc(-c2cc(-c3ccc(Cl)cc3)nc(/N=C3\C(=O)N(CN4CCOCC4)c4ccccc43)n2)cc1
OBSERVED_MEASUREMENT: 81.7 µM
--
COMPOUND: CS/C(C#N)=C(\C#N)SC
OBSERVED_MEASUREMENT: 20.7 µM
--
COMPOUND: COc1cc2c(F)nccc2cc1C(=O)N[C@@H](c1ccc(F)c(Cl)c1)[C@@H]1C[C@@H](O)CN1
OBSERVED_MEASUREMENT: 14.1 µM
--
COMPOUND: COc1ccc(CC2c3cc(OC)c(OC)c(OC)c3CC[N+]2(C)C)cc1Oc1ccc(CC2c3cc4c(c(OC)c3CC[N+]2(C)C)OCO4)cc1 (stereo not given)
OBSERVED_MEASUREMENT: > 100 µM
--
COMPOUND: CCOc1cc2ccc3c4cc(OC)c(OC)cc4cnc3c2cc1OCC
OBSERVED_MEASUREMENT: > 100 µM
--
COMPOUND: O=C(Nc1ccc(Cl)cc1)NS(=O)(=O)c1coc2ccccc2c1=O
OBSERVED_MEASUREMENT: > 10 µM
--
COMPOUND: COc1ccc(CCN2CCCN3C2=Nc2ccccc2S3(=O)=O)cc1
OBSERVED_MEASUREMENT: > 100 µM
--
COMPOUND: Nc1ccccc1SC(CC(=O)c1ccccc1)c1ccc([N+](=O)[O-])cc1 (stereo not given)
OBSERVED_MEASUREMENT: 32.7 µM
--
COMPOUND: COC(=O)[C@H]1[C@@H](O)[C@@]2(O)c3c(OC)cc(O[C@@H]4O[C@@H]([C@H](O)CO)CO[C@H]4OC)cc3O[C@@]2(c2ccc(OC)cc2)[C@@H]1c1ccccc1
OBSERVED_MEASUREMENT: 0.108 µM
--
COMPOUND: CNC(=O)c1c(NC(=O)c2ccc(C(F)(F)F)cc2)sc2c1CCC(=O)C2
OBSERVED_MEASUREMENT: 21.2 µM
--
COMPOUND: COc1ccc(/C=N/n2c(=O)[nH]c3ccccc3c2=O)cc1
OBSERVED_MEASUREMENT: > 100 µM
--
COMPOUND: CSc1nc(NC2OCC(OC(C)=O)C(OC(C)=O)C2OC(C)=O)c(N=C(C)C(C)=O)c(=O)n1C (stereo not given)
OBSERVED_MEASUREMENT: > 100 µM
--
COMPOUND: CC(=O)[O-].CC(=O)[O-].O=C(N/N=C/c1cc(Cl)cc(Cl)c1O)c1ccncc1.[Ni+2]
OBSERVED_MEASUREMENT: > 100 µM
--
COMPOUND: CN1C(=O)CN2C(Cl)(Cl)C2(c2ccccc2F)c2cc([N+](=O)[O-])ccc21 (stereo not given)
OBSERVED_MEASUREMENT: > 100 µM
--
COMPOUND: O=Nc1c(-c2c(O)[nH]c3ccccc23)[nH]c2ccccc12
OBSERVED_MEASUREMENT: 55.2 µM
--
COMPOUND: CC(C)OC(=O)Nc1cccc(Cl)c1
OBSERVED_MEASUREMENT: > 100 µM
--
COMPOUND: O=C(CSc1nnc(Cc2ccccc2)o1)Nc1cccc(Cl)c1
OBSERVED_MEASUREMENT: > 100 µM

* * *

System: SNB-19 CNS
Assay: NCI tumour cell line growth inhibition, 48 h; in the data active = GI50 below about 0.43 µM; inactive = the rest
Labels: label 1 for active, label 0 for inactive

COMPOUND: COC(=O)C(Cc1cnc[nH]1)NC(=O)CNC(=O)CCCn1c(=O)c2c3ccccc3n(C)c2n2nnc(-c3ccccc3)c12 (stereo not drawn)
LABEL_VALUE: label 0
//
COMPOUND: NC(=NCCCC1(c2ccccc2)CCCC1)Nc1ccc(Cl)cc1
LABEL_VALUE: label 0
//
COMPOUND: COc1ccccc1-c1cc(/C=C2\C(=O)Nc3ncc(Br)cc32)cc(Br)c1O
LABEL_VALUE: label 0
//
COMPOUND: Cc1ccc(S(=O)(=O)Oc2ccc([N+](=O)[O-])cc2[N+](=O)[O-])cc1
LABEL_VALUE: label 0
//
COMPOUND: CCOC(=O)C(Cc1c[nH]c2ccc([N+](=O)[O-])cc12)(NC(C)=O)C(=O)OCC
LABEL_VALUE: label 0
//
COMPOUND: O=C(CCCCCCCn1cc(-c2cccnc2)nn1)Nc1ccccc1-c1ccccc1
LABEL_VALUE: label 0
//
COMPOUND: COC(=O)[C@H]1C(=O)[C@@]2(C)[C@H]([C@H](OC(=O)c3ccccc3)[C@]3(O)C[C@H](OC(=O)[C@H](O)[C@@H](NC(=O)c4ccc(F)cc4)c4ccccc4)C(C)=C1C3(C)C)[C@]1(OC(C)=O)CO[C@@H]1C[C@@H]2O
LABEL_VALUE: label 1
//
COMPOUND: NC(=O)C1c2ccccc2C=Cc2ccccc21
LABEL_VALUE: label 0
//
COMPOUND: C/C1=C/C(=O)O[C@@H]2C[C@@H](CC[C@H](C)/C=C\C=C\CC1)O[C@@](O)([C@@H]1CSC(=O)N1CO)C2
LABEL_VALUE: label 1
//
COMPOUND: COc1cc2c(F)nccc2cc1C(=O)N[C@@H](c1ccc(F)c(Cl)c1)[C@@H]1C[C@@H](O)CN1
LABEL_VALUE: label 0
//
COMPOUND: COc1ccc(CCN2CCCN3C2=Nc2ccccc2S3(=O)=O)cc1
LABEL_VALUE: label 0
//
COMPOUND: O=C1Oc2ccccc2C(=O)/C1=C/N1C(=O)/C(=C/c2ccc3c(c2)OCO3)SC1=S
LABEL_VALUE: label 0
//
COMPOUND: O=C1/C=C/[C@@H](O)[C@@H]2C[C@@H](O)C[C@H]2/C=C/CCC[C@H](CCc2ccc(C(F)(F)F)cc2)O1
LABEL_VALUE: label 1

* * *

Test system: OVCAR-5 ovarian
Experiment: NCI tumour cell line growth inhibition, 48 h
VALUE_KIND: TGI (µM)

MOLECULE: O=C(/C=C/c1ccc(O)c(O)c1)OCc1ccccc1
CENSOR_SYMBOL: >
OBSERVED_MEASUREMENT: 100
//
MOLECULE: CCOC(=O)C1(C#N)C(c2ccccc2)CC(O)(c2ccc([N+](=O)[O-])cc2)C(C(=O)c2ccc([N+](=O)[O-])cc2)C1c1ccccc1 (configuration not stated)
CENSOR_SYMBOL: >
OBSERVED_MEASUREMENT: 100
//
MOLECULE: C=C1[C@H](OC(=O)C(C)C)[C@@H](OC(C)=O)[C@@H](OC(C)=O)C(C)(C)[C@@H]2O[C@H]2[C@@H](C)C(=O)[C@@]2(OC(C)=O)C[C@@](C)(OC(C)=O)[C@H](OC(C)=O)[C@@H]2[C@H]1OC(C)=O
CENSOR_SYMBOL: >
OBSERVED_MEASUREMENT: 100
//
MOLECULE: O=C(NCCO)c1cc2c(cn1)[nH]c1ccccc12
CENSOR_SYMBOL: >
OBSERVED_MEASUREMENT: 100
//
MOLECULE: Cn1cc(-c2csc(-c3cn(C)c4ccc(Br)cc34)n2)c2cnccc21
CENSOR_SYMBOL: =
OBSERVED_MEASUREMENT: 3.22
//
MOLECULE: CCN(CC)CC.CCOc1ccc(NC(=O)N=C=[N-])cc1.[CH-]1CCCCC1.[CH-]1CCCCC1.[CH-]1CCCCC1.[Cl-].[Sn+4]
CENSOR_SYMBOL: =
OBSERVED_MEASUREMENT: 0.114
//
MOLECULE: COC(=O)[C@H]1[C@@H](O)[C@@]2(O)c3c(OC)cc(O[C@@H]4O[C@@H]([C@H](O)CO)CO[C@H]4OC)cc3O[C@@]2(c2ccc(OC)cc2)[C@@H]1c1ccccc1
CENSOR_SYMBOL: =
OBSERVED_MEASUREMENT: 0.0311
